Target: hTA1 V184P (Homo sapiens, UniProt Q96RJ0, V184P)
Construct: expressed in transfected cells; host or cells: HEK293T
Assay: GloSensor cAMP accumulation assay, V184P mutant
Format: cell-based
Conditions: V184P; n=2; read-out: EC50
Overview of recorded pEC50 for various compounds
pEC50 is defined as minus the log10 of a concentration measured in mol/L.

[in] Query for hTA1 V184P (Homo sapiens, UniProt Q96RJ0, V184P): what pEC50 does the record show for NCCc1ccc(Oc2ccc(O)cc2)c(I)c1 ?
[out] 6.27

Others:
[in] Item: NCCc1ccccc1 Test system: hTA1 V184P (Homo sapiens, UniProt Q96RJ0, V184P) Read-out: pEC50 Value: ?
[out] 6.49

[in] Now this one: NCCc1ccc(O)cc1
[out] 5.83

[in] Lookup Cc1c(F)cccc1[C@H]1COC(N)=N1
[out] 8.72

[in] Repeat for the following compound: CN1CC2c3ccccc3Oc3ccc(Cl)cc3C2C1 (centres unmarked)
[out] 6.77

###

Target: hTA1 C88/178S (Homo sapiens, UniProt Q96RJ0, C178S/C88S)
Construct: expressed in transfected cells; host or cells: HEK293T
Assay: GloSensor cAMP accumulation assay, C88S/C178S double mutant
Type: cell-based
Conditions: read-out: Span ± SEM (Emax normalized to β-PEA)
# Emax per entry
Write down the numeric answer in % and omit the unit.

Below, each entry is followed by its recorded Emax result.
[in] Name the recorded Emax for CCC(CC1COC(N)=N1)c1ccccc1 (stereo not shown) [Ro5256390] .
[out] 111

[in] Next up: CN1CC2c3ccccc3Oc3ccc(Cl)cc3C2C1 (stereo not shown) [asenapine]
[out] 86.3

[in] Please give the result for NCCc1ccc(O)cc1 [TYR, tyramine] too.
[out] 99.3

Continue with the next compound.
[in] What does the record list as Emax for CCc1[nH]nc(C(=O)Nc2ccc([C@H]3CNCCO3)cc2)c1C [ralmitaront] ?
[out] 65.8

###

A collection of compounds and their measured EC50
Biological target: hTA1 S107C (Homo sapiens, UniProt Q96RJ0, S107C)
Construct: expressed in transfected cells; host or cells: HEK293T
Assay: GloSensor cAMP accumulation assay, S107C mutant;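 note: cells transiently co-expressing receptor and GloSensor biosensor, luminescence read after 30 min agonist exposure at room temperature, concentration-response fitted by nonlinear regression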
Assay type: cell-based
Details: S107C; n=2; read-out: EC50
Write the answer as a number in nM, unit excluded.

Worked set:
[in] Given the entry CN1CC2c3ccccc3Oc3ccc(Cl)cc3C2C1 (centres unmarked) , report its measured EC50.
[out] 618

[in] Entry to check: NCCc1ccccc1
[out] 205

[in] Try the compound NCCc1ccc(Oc2ccc(O)cc2)c(I)c1
[out] 1350

[in] Cc1c(F)cccc1[C@H]1COC(N)=N1 ?
[out] 248

# context switch: different compound, same EC50
[in] Fill in the blank: the reported EC50 of NCCc1ccc(O)cc1 is ____.
[out] 186

###

Target: hTA1 I290N (Homo sapiens, UniProt Q96RJ0, I290N)
Construct: expressed in transfected cells; host or cells: HEK293T
Assay: GloSensor cAMP accumulation assay, I290N mutant
Type: cell-based
Details: EC50, I290N; n=2
value type: EC50

[in] What does the record list as EC50 for CCC(CC1COC(N)=N1)c1ccccc1 (stereo not shown) ?
[out] 6.21 nM

###

Target: hTA1 T271N (Homo sapiens, UniProt Q96RJ0, T271N)
Construct: expressed in transfected cells; host or cells: HEK293T
Assay: GloSensor cAMP accumulation assay, T271N mutant
Format: cell-based
Details: EC50, T271N; n=2
value type: EC50 (nM)
Kindly provide the numeric value in nM only, without the unit symbol.

[in] Form field: reported EC50 of CCC(CC1COC(N)=N1)c1ccccc1 (stereo not shown)
[out] 12.6

###

Target: hTA1 F195T (Homo sapiens, UniProt Q96RJ0, F195T)
Construct: expressed in transfected cells; host or cells: HEK293T
Assay: GloSensor cAMP accumulation assay, F195T mutant
Type: cell-based
Settings: F195T; n=2; read-out: EC50
value type: pEC50
Give only the number. pEC50 is defined as minus log10 of concentration in molar units.

Some compounds with recorded pEC50:
[in] Which pEC50 is listed for NCCc1ccccc1 ?
[out] 7.63

[in] Try the compound Cc1c(F)cccc1[C@H]1COC(N)=N1
[out] 7.68

[in] Now give it for NCCc1ccc(O)cc1 too.
[out] 8.20

[in] Param item: CN1CC2c3ccccc3Oc3ccc(Cl)cc3C2C1 (centres unmarked)
[out] 7.11

Attention now shifts to the item below.
[in] Record request: pEC50 value, item NCCc1ccc(Oc2ccc(O)cc2)c(I)c1
[out] 6.67

###

Target: hTA1 R83H (Homo sapiens, UniProt Q96RJ0, R83H)
Construct: expressed in transfected cells; host or cells: HEK293T
Assay: GloSensor cAMP accumulation assay, R83H mutant;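 note: cells transiently co-expressing hTA1 and a cAMP GloSensor, luminescence read 30 min after agonist addition at room temperature, concentration–response fitted by non-linear regression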
Type: cell-based
Conditions: EC50, R83H; n=2
value type: pEC50
Lab note: report pEC50 as minus log10 of the concentration in molar units, number only.

[in] May I ask what pEC50 has been recorded for CCC(CC1COC(N)=N1)c1ccccc1 (stereo not shown) ?
[out] 8.28

###

Biological target: hTA1 C5S (Homo sapiens, UniProt Q96RJ0, C5S)
Construct: expressed in transfected cells; host or cells: HEK293T
Sequence (Q96RJ0 1-339 C5S): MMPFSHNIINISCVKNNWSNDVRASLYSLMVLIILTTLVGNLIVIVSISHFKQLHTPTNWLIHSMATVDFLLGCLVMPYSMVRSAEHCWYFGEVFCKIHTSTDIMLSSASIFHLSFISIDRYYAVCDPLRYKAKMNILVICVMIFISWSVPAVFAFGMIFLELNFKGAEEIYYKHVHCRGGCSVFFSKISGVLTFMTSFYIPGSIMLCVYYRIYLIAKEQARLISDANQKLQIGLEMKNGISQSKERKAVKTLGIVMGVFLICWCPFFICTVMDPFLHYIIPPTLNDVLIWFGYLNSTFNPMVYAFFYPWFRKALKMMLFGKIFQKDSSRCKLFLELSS
Assay: GloSensor cAMP accumulation assay, C5S mutant
Format: cell-based
Conditions: hTA1 C5S; β-PEA = 100; mean of 3 replicates, one line per independent experiment
The following compounds are listed with their measured Emax values, Mean values.
In your answer, state the number alone without any accompanying words.

// worked examples, Emax values, Mean included
[in] // lookup Emax values, Mean | system=hTA1 C5S (Homo sapiens, UniProt Q96RJ0, C5S) | key= CCC(CC1COC(N)=N1)c1ccccc1 (stereo not shown) [Ro5256390]
[out] 93.1178

[in] Field entry: NCCc1ccccc1 [β-PEA, β-phenethylamine]
[out] 100

[in] Moving on to NCCc1ccc(O)cc1 [TYR, tyramine]
[out] 92.4348

// below: Emax values, Mean requested for another compound
[in] Record lookup: for hTA1 C5S (Homo sapiens, UniProt Q96RJ0, C5S), what Emax values, Mean belongs to CCc1[nH]nc(C(=O)Nc2ccc([C@H]3CNCCO3)cc2)c1C [ralmitaront] ?
[out] 49.6851

###

Parameter EC50: see the listing below.
Target: hTA1 I290N (Homo sapiens, UniProt Q96RJ0, I290N)
Construct: expressed in transfected cells; host or cells: HEK293T
Test: GloSensor cAMP accumulation assay, I290N mutant;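 note: cells transiently co-expressing hTA1 and the GloSensor cAMP biosensor, luminescence read 30 min after compound addition at room temperature, efficacy scaled to the maximal β-PEA response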
Format: cell-based
Details: I290N; n=2; read-out: EC50
Numbers only here, please. The scale is nM.

As a guide, the following entries are already answered.
[in] Need EC50 of CN1CC2c3ccccc3Oc3ccc(Cl)cc3C2C1 (centres unmarked) , thanks.
[out] 1000

[in] Then what about the compound NCCc1ccc(O)cc1 ?
[out] 492

[in] // repeat for NCCc1ccc(Oc2ccc(O)cc2)c(I)c1 and report
[out] 139

[in] Follow-up entry: Cc1c(F)cccc1[C@H]1COC(N)=N1
[out] 4.63

More entries:
[in] // query EC50 value for entry NCCc1ccccc1
[out] 54.7

###

Molecular target: hTA1 C5S (Homo sapiens, UniProt Q96RJ0, C5S)
Construct: expressed in transfected cells; host or cells: HEK293T
Experiment: GloSensor cAMP accumulation assay, C5S mutant
Format: cell-based
Details: C5S; n=2; read-out: EC50
pEC50: −log10 of the molar value.
Would you please tag the item true (1) when its pEC50 is 7 or above, and false (0) when it is below?

[in] pEC50 >= 7 for Cc1c(F)cccc1[C@H]1COC(N)=N1 ?
[out] true (1)

Continuing:
[in] Does the compound NCCc1ccc(O)cc1 have recorded pEC50 that is 7 or more?
[out] false (0)

[in] Also NCCc1ccc(Oc2ccc(O)cc2)c(I)c1 ?
[out] false (0)

[in] Similarly, CN1CC2c3ccccc3Oc3ccc(Cl)cc3C2C1 (centres unmarked) ?
[out] false (0)

Origin of measurements: paper PMC10762035
